Measured Refined ligand occupancy (%) of individual entries
Molecular target: SARS-CoV-2 NSP3 macrodomain (Mac1) (Severe acute respiratory syndrome coronavirus 2, UniProt P0DTD1)
Type: binding
Settings: refined crystallographic occupancy
Please report the result as a number followed by the unit.

A selection of reference data follows.
OCC1CCCN1c1ncnc2[nH]ccc12 (centres unmarked) :: 70%
CC(C)(C)C1CCC(CO)N(c2ncnc3[nH]ccc23)C1 (centres unmarked) :: 16%
OCC1CC2(CCCC2)CN1c1ncnc2[nH]ccc12 (centres unmarked) :: 64%
Cc1ccccc1CC(CO)Nc1ncnc2[nH]ccc12 (centres unmarked) :: 38%

Exam item: Which Refined ligand occupancy (%) is reported for this molecule? OCC(Nc1ncnc2[nH]ccc12)C1CCc2ccccc21 (centres unmarked)
Marked response: 60%

Exam item: Then what about the molecule OC(c1ccccc1)C1CCCN1c1ncnc2[nH]ccc12 (centres unmarked) ?
Marked response: 44%

Exam item: Let us now turn to OC[C@@H]1C[C@H](F)CN1c1ncnc2[nH]ccc12
Marked response: 34%

Exam item: Okay, and NC(=O)C1(O)CCN(c2ncnc3[nH]ccc23)C1 (centres unmarked) ?
Marked response: 44%

Exam item: Consider next the molecule OCC(Cc1nccs1)Nc1ncnc2[nH]ccc12 (centres unmarked) in the same way.
Marked response: 38%

Exam item: Same again, this time with c1ccc(-n2nnnc2CSc2nnc(NC3CC3)s2)cc1
Marked response: 22%

Exam item: Next: O[C@H]1COC[C@@H]1Nc1ncnc2[nH]ccc12
Marked response: 16%

* * *

Target: SARS-CoV-2 NSP3 macrodomain (Mac1) (Severe acute respiratory syndrome coronavirus 2, UniProt P0DTD1)
Format: binding
QUANTITY NAME: Occupancy difference (refined_occupancy - 2*(1-BDC))

Sample answers from the record:
O=C(O)C(F)(F)F.OCC1(Nc2ncnc3[nH]ccc23)CC1 :: 20
OCC(COCc1ccccc1)Nc1ncnc2[nH]ccc12 (stereo not shown) :: 0
O=C(O)C(F)(F)F.OC1([C@H]2CCCN2c2ncnc3[nH]ccc23)Cc2ccccc2C1 :: 0
CC(C)(O)[C@H]1CCCN1c1ncnc2[nH]ccc12 :: 5

Exam item: So what's the measured Occupancy difference (refined_occupancy - 2*(1-BDC)) for this one? OCC(Nc1ncnc2[nH]ccc12)C1CCC1 (stereo not shown)
Marked response: 0

Exam item: Moving on to the next compound: OC(c1ccccc1)C1CCCN1c1ncnc2[nH]ccc12 (stereo not shown)
Marked response: 0

Exam item: Follow-up entry: O[C@H]1CC[C@@H]2CCN(c3ncnc4[nH]ccc34)[C@@H]21
Marked response: 0

Exam item: Then Nc1nnc(SCCn2c(=O)oc3ccccc32)s1 ?
Marked response: 0

Exam item: And OCC(CC1CCC1)Nc1ncnc2[nH]ccc12 (stereo not shown) ?
Marked response: 0

Exam item: What do we get for CCC(O)[C@H]1CCCN1c1ncnc2[nH]ccc12 (stereo partly shown) ?
Marked response: 10

* * *

Biological target: SARS-CoV-2 NSP3 macrodomain (Mac1) (Severe acute respiratory syndrome coronavirus 2, UniProt P0DTD1)
Type: binding
Conditions: refined crystallographic occupancy
Labelling: Refined ligand occupancy (%) reported below 30% becomes Fulfilled; at or above becomes Not fulfilled.

Use these answered entries as a reference point.
OCC(Nc1ncnc2[nH]ccc12)c1ccco1 (stereo not shown) [AVI-3659] :: Not fulfilled
O=C(O)C(F)(F)F.O[C@H]1CCC[C@@H]1Nc1ncnc2[nH]ccc12 [AVI-3639] :: Fulfilled
Nc1nnc(SCCn2c(=O)oc3ccccc32)s1 [AVI-296] :: Fulfilled
OC[C@@H]1C[C@@H]2CCC[C@@H]2N1c1ncnc2[nH]ccc12 [AVI-3720] :: Not fulfilled
O=C(O)C(F)(F)F.OC[C@H]1CC2(CN1c1ncnc3[nH]ccc13)OCCO2 [AVI-3702] :: Not fulfilled

Exam item: Hi there! Is Refined ligand occupancy (%) for CCC(Nc1ncnc2[nH]ccc12)C(C)(C)O (stereo not shown) [AVI-3667] below 30%, do you know?
Marked response: Fulfilled

Exam item: O=C(O)C(F)(F)F.OCC1(Nc2ncnc3[nH]ccc23)CCCC1 [AVI-3692] , same question.
Marked response: Fulfilled

Exam item: Can you handle OCC(CC(F)(F)F)Nc1ncnc2[nH]ccc12 (stereo not shown) [AVI-3637] next?
Marked response: Not fulfilled

Exam item: Let us now turn to O=C(O)C(F)(F)F.OCC1(Nc2ncnc3[nH]ccc23)CCC1 [AVI-3670]
Marked response: Not fulfilled
